System: IRAK1
Parameters: species or system human, MV4-11 + K-562 + COLO205 + SK-N-BE2 + OVCAR-8
conditions used: read-out: apparent Kd; compound concentrations:100 nM and 1000 nM (sheet 'Samples'); n = 1
Exercise: for every item that follows, state its recorded potency estimated from few doses.
Answer as a quantity: numeral, then unit.

[[record]]
compound = "CN(C)CC(O)COc1ccc(Nc2nccc(-c3cnn4nc(N5CCOCC5)ccc34)n2)cc1 (centres unmarked) [GW767488X]"
target_desc = "IRAK1"
result = "80 nM"

[[record]]
compound = "Cl.O=S1CCN(Cc2ccc(-c3ccc4ncnc(Nc5ccc(OCc6ccccc6)c(F)c5)c4c3)o2)CC1 [GW576924A]"
target_desc = "IRAK1"
result = "1540 nM"

[[record]]
compound = "CNC(=O)c1ccccc1Nc1nc(Nc2ccc(N3CCOCC3)cc2)ncc1Cl.Cl [GSK1576028A]"
target_desc = "IRAK1"
result = "1020 nM"

[[record]]
compound = "N#Cc1cccc(Nc2nccc(-c3cnn4ncccc34)n2)c1 [GW778894X]"
target_desc = "IRAK1"
result = "896 nM"


Alright, here's another compound for you.
Given the entry CC(C)Oc1ccc2c(-c3ccnc(Nc4ccc(N5CCN(C)CC5)cc4)n3)cnn2n1 [GW696155X] , report its measured potency estimated from few doses.
769 nM
